ASSAY NAME: Drug metabolism in human liver microsomes assessed as drug glucuronidation in presence of BSA by LC-MS/MS method
Type: ADME
EXPERIMENTAL CONDITIONS: read-out: KmL
MEASURED METRIC: Km (µM)
Answers are plain numbers, in µM.

IN: If you can, please state the reported Km value of CC1=NN(c2ccccc2)C(=O)C1 .
OUT: 1350

----------
TEST SYSTEM: UDP-glucuronosyltransferase 1A6 (Homo sapiens, UniProt P19224)
Sequence (P19224 whole entry): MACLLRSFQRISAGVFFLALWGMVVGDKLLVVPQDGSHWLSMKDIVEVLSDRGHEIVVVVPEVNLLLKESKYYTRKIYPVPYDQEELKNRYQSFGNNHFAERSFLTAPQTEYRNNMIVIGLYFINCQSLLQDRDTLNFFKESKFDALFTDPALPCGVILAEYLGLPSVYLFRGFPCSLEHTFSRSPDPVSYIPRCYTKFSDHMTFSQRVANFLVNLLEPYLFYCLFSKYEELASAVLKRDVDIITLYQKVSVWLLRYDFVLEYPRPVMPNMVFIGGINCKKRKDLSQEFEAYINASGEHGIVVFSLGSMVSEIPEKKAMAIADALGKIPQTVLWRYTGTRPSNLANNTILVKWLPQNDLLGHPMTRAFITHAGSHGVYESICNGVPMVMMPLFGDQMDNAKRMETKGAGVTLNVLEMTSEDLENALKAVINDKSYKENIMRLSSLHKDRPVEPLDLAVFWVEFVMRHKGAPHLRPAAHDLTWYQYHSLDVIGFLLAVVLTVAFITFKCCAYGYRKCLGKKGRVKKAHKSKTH
ASSAY NAME: Activity of human recombinant UGT1A6 expressed in insect cells assessed as intrinsic clearance for enzyme mediated glucuronidation per mg protein by LC-MS/MS method
Type: ADME
MEASURED METRIC: clearance (µL/min/mg)
Numbers only, in µL/min/mg.

IN: Dear colleague, I am looking for the recorded clearance of the following compound: CC1=NN(c2ccccc2)C(=O)C1
OUT: 1.6

----------
System: Liver microsome
ASSAY NAME: Drug metabolism in human liver microsomes assessed as intrinsic clearance for drug glucuronidation per mg tissue in absence of BSA by LC-MS/MS method
Format: ADME
MEASURED METRIC: CLHL (µL/min/mg)
Answers are plain numbers, in µL/min/mg.

IN: For the compound shown here, CC1=NN(c2ccccc2)C(=O)C1 , give the reported CLHL.
OUT: 1.3

----------
ASSAY NAME: Drug metabolism in human kidney microsomes assessed as drug glucuronidation in absence of BSA by LC-MS/MS method
Type: ADME
EXPERIMENTAL CONDITIONS: read-out: KmL
MEASURED METRIC: Km (µM)
One number for each entry, in µM.

IN: For the compound shown here, CC1=NN(c2ccccc2)C(=O)C1 [EDARAVONE] , give the reported Km.
OUT: 1360

----------
ASSAY NAME: Drug metabolism in human kidney microsomes assessed as intrinsic clearance for drug glucuronidation per mg tissue in presence of BSA by LC-MS/MS method
Assay type: ADME
MEASURED METRIC: CL(low) (µL/min/mg)
Numbers only, in µL/min/mg.

IN: Recorded CL(low) of CC1=NN(c2ccccc2)C(=O)C1 [EDARAVONE] , please.
OUT: 3.6

----------
ASSAY NAME: Drug metabolism in human kidney microsomes assessed as drug glucuronidation in presence of BSA by LC-MS/MS method
Type: ADME
EXPERIMENTAL CONDITIONS: read-out: KmL
MEASURED METRIC: Km
Express your answer as a number followed by its unit.

IN: Consider the compound CC1=NN(c2ccccc2)C(=O)C1 and give its measured Km.
OUT: 1470 µM

----------
TEST SYSTEM: UDP-glucuronosyltransferase 1A9 (Homo sapiens, UniProt O60656)
Sequence (O60656 whole entry): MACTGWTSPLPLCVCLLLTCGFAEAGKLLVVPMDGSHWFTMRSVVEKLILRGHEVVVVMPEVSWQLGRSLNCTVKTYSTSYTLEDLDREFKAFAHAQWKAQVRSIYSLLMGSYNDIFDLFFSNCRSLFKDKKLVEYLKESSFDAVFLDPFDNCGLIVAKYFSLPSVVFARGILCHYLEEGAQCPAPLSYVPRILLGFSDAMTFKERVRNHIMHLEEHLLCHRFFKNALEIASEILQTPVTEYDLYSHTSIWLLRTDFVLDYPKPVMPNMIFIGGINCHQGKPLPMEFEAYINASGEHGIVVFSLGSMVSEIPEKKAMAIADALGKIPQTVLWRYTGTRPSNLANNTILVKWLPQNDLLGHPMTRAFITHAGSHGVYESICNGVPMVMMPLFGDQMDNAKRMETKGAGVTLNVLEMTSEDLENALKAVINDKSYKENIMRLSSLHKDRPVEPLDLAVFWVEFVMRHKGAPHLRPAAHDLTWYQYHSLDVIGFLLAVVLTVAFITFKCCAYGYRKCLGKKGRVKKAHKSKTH
ASSAY NAME: Activity of human recombinant UGT1A9 expressed in insect cells assessed as intrinsic clearance for enzyme mediated glucuronidation per mg protein by LC-MS/MS method
Assay type: ADME
MEASURED METRIC: CL(low) (µL/min/mg)
One number for each entry, in µL/min/mg.

IN: Value lookup for CL(low); key = CC1=NN(c2ccccc2)C(=O)C1 [EDARAVONE]
OUT: 0.8

----------
ASSAY NAME: Drug metabolism in human kidney microsomes assessed as intrinsic clearance for drug glucuronidation per mg tissue in presence of BSA by LC-MS/MS method
Format: ADME
MEASURED METRIC: CL(high) (µL/min/mg)
Answers are plain numbers, in µL/min/mg.

IN: For the compound CC1=NN(c2ccccc2)C(=O)C1 , what CL(high) is on record?
OUT: 78.5
